This collection of values is drawn from ChEMBL document CHEMBL1201861.

System: MEG-01;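 note: growth inhibition of MEG-01 cells, read out by a cell viability assay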
Protocol Text: cells
Format: functional, cell-based, Homo sapiens
Recorded Conditions: Homo sapiens, MEG-01
Description: SANGER: Inhibition of human MEG-01 cell growth in a cell viability assay.
// values below are reported IC50

Below: 2 compounds and their reported IC50.
compound=Cc1cc([N+](=O)[O-])ccc1NS(=O)(=O)c1cc(Cl)ccc1Cl observed_value="> 32 µM"
compound=Cc1ccc(-c2c(C(=O)CCl)n(CCCO)c3ncnc(N)c23)cc1 observed_value="> 4 µM"

Now for another entry.
Reported IC50 for COc1cc2ncn(-c3cc(OCc4ccccc4S(C)(=O)=O)c(C#N)s3)c2cc1OC [GSK-319347A] was > 5 µM

---

Test system: RPMI-8226
Protocol Text: cells
Format: functional, cell-based, Homo sapiens
Recorded Conditions: Homo sapiens, RPMI-8226
Description: SANGER: Inhibition of human RPMI-8226 cell growth in a cell viability assay.
Parameter Measured: IC50

entry_smiles=CC[C@H](CO)Nc1nc(NCc2ccccc2)c2ncn(C(C)C)c2n1 parameter_measured=IC50 observed_value="> 16 µM"

Reported IC50 for COc1cc(N2CCN(C)CC2)ccc1Nc1ncc2c(n1)N(C)c1ccccc1C(=O)N2C was > 8 µM

Reported IC50 for Cc1cn(-c2cc(NC(=O)c3ccc(C)c(Nc4nccc(-c5cccnc5)n4)c3)cc(C(F)(F)F)c2)cn1 was > 2 µM

Reported IC50 for O=C(O)c1ccc(-c2c[nH]c3ncc(-c4ccccc4)cc23)cc1C1CCCC1 was > 16 µM

---

Tested on: Ramos-2G6-4C10;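 note: growth inhibition of the cell line, measured by a cell viability read-out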
Protocol Text: cells
Type: functional, cell-based, Homo sapiens
Recorded Conditions: Homo sapiens, Ramos-2G6-4C10
Description: SANGER: Inhibition of human Ramos-2G6-4C10 cell growth in a cell viability assay.
// values below are reported IC50

Below: 5 compounds and their reported IC50.
compound=CCN(CC)CCCCNc1ncc2cc(-c3cc(OC)cc(OC)c3)c(NC(=O)NC(C)(C)C)nc2n1 parameter_measured=IC50 observed_value="> 2 µM"
compound=Cn1cnc2c(F)c(Nc3ccc(Br)cc3Cl)c(C(=O)NOCCO)cc21 parameter_measured=IC50 observed_value="> 4 µM"
compound=CCN(CC)CCNC(=O)c1c(C)[nH]c(/C=C2\C(=O)Nc3ccc(F)cc32)c1C parameter_measured=IC50 observed_value="> 8 µM"
compound="COc1cc2ncn(-c3cc(OCc4ccccc4S(C)(=O)=O)c(C#N)s3)c2cc1OC [GSK-319347A]" parameter_measured=IC50 observed_value="> 5 µM"
compound="Nc1cccc2c1CN(C1CCC(=O)NC1=O)C2=O (stereo unspecified) [LENALIDOMIDE]" parameter_measured=IC50 observed_value="> 5 µM"

Now for another entry.
Value (IC50, Ramos-2G6-4C10) for record CC1(C)CNc2cc(NC(=O)c3cccnc3NCc3ccncc3)ccc21 = > 2 µM

---

Test system: CCRF-CEM;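 note: inhibition of CCRF-CEM cell growth, measured by a cell viability assay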
Protocol Text: cells
Assay type: functional, cell-based, Homo sapiens
Recorded Conditions: Homo sapiens, CCRF-CEM
Description: SANGER: Inhibition of human CCRF-CEM cell growth in a cell viability assay.
pIC50: −log10 of the molar value.
Parameter Measured: pIC50

Below: 3 compounds and their reported pIC50.
entry_smiles=COc1cc(-c2nn([C@H]3CC[C@H](N4CCN(C(C)=O)CC4)CC3)c3ncnc(N)c23)ccc1NC(=O)c1cc2ccccc2n1C system_name=CCRF-CEM observed_value="< 5.29"
entry_smiles=CC[C@H](CO)Nc1nc(NCc2ccccc2)c2ncn(C(C)C)c2n1 system_name=CCRF-CEM observed_value="< 4.80"
entry_smiles=Cc1cn(-c2cc(NC(=O)c3ccc(C)c(Nc4nccc(-c5cccnc5)n4)c3)cc(C(F)(F)F)c2)cn1 system_name=CCRF-CEM observed_value="< 5.70"

Reported pIC50 for CCN(CC)CCCCNc1ncc2cc(-c3cc(OC)cc(OC)c3)c(NC(=O)NC(C)(C)C)nc2n1 was < 5.70

---

System: NCI-H226;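 note: cell viability read-out used to gauge growth inhibition of the cells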
Protocol Text: cells
Assay type: functional, cell-based, Homo sapiens
Recorded Conditions: Homo sapiens, NCI-H226
Description: SANGER: Inhibition of human NCI-H226 cell growth in a cell viability assay.
pIC50: −log10 of the molar value.
Parameter Measured: pIC50

compound=CC(=O)O[C@H]1C(=O)[C@@]2(C)[C@H]([C@H](OC(=O)c3ccccc3)[C@]3(O)C[C@H](OC(=O)[C@H](O)[C@@H](NC(=O)c4ccccc4)c4ccccc4)C(C)=C1C3(C)C)[C@]1(OC(C)=O)CO[C@@H]1C[C@@H]2O observed_value="< 6.99"
compound="COc1cc2ncn(-c3cc(OCc4ccccc4S(C)(=O)=O)c(C#N)s3)c2cc1OC [GSK-319347A]" observed_value="< 5.30"
compound=CCC/C=C/C=C/C(=O)O[C@H]1/C(=C/C(=O)OC)C[C@H]2C[C@H]([C@@H](C)O)OC(=O)C[C@H](O)C[C@@H]3C[C@H](OC(C)=O)C(C)(C)[C@](O)(C[C@@H]4C/C(=C/C(=O)OC)C[C@H](/C=C/C(C)(C)[C@]1(O)O2)O4)O3 observed_value="< 8.10"
compound=CC1(C)CNc2cc(NC(=O)c3cccnc3NCc3ccncc3)ccc21 observed_value="< 5.70"

Reported pIC50 for CCN(CC)CCCCNc1ncc2cc(-c3cc(OC)cc(OC)c3)c(NC(=O)NC(C)(C)C)nc2n1 was < 5.70

---

// values below are reported IC50
System: KARPAS-299
Protocol Text: cells
Assay type: functional, cell-based, Homo sapiens
Recorded Conditions: Homo sapiens, KARPAS-299
Description: SANGER: Inhibition of human KARPAS-299 cell growth in a cell viability assay.

compound="COc1cc2ncn(-c3cc(OCc4ccccc4S(C)(=O)=O)c(C#N)s3)c2cc1OC [GSK-319347A]" parameter_measured=IC50 observed_value="> 5 µM"
compound="Cc1cn(-c2cc(NC(=O)c3ccc(C)c(Nc4nccc(-c5cccnc5)n4)c3)cc(C(F)(F)F)c2)cn1 [NILOTINIB]" parameter_measured=IC50 observed_value="> 2 µM"

Now for another entry.
Reported IC50 for O=C(O)c1ccc(-c2c[nH]c3ncc(-c4ccccc4)cc23)cc1C1CCCC1 [GSK-650394] was > 16 µM

---

// values below are reported pIC50
Test system: EW-11;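 note: growth inhibition of human EW-11 cells, measured with a cell viability assay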
Protocol Text: cells
Assay type: functional, cell-based, Homo sapiens
Recorded Conditions: Homo sapiens, EW-11
Description: SANGER: Inhibition of human EW-11 cell growth in a cell viability assay.
pIC50: −log10 of the molar value.

entry_smiles=CCC/C=C/C=C/C(=O)O[C@H]1/C(=C/C(=O)OC)C[C@H]2C[C@H]([C@@H](C)O)OC(=O)C[C@H](O)C[C@@H]3C[C@H](OC(C)=O)C(C)(C)[C@](O)(C[C@@H]4C/C(=C/C(=O)OC)C[C@H](/C=C/C(C)(C)[C@]1(O)O2)O4)O3 observed_value="< 8.10"

Reported pIC50 for O=C(O)c1ccc(-c2c[nH]c3ncc(-c4ccccc4)cc23)cc1C1CCCC1 was < 4.80

Reported pIC50 for CC[C@H](CO)Nc1nc(NCc2ccccc2)c2ncn(C(C)C)c2n1 was < 4.80

---

System: GI-1;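 note: growth inhibition of human GI-1 cells, measured with a cell viability readout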
Protocol Text: cells
Assay type: functional, cell-based, Homo sapiens
Recorded Conditions: Homo sapiens, GI-1
Description: SANGER: Inhibition of human GI-1 cell growth in a cell viability assay.
pIC50: −log10 of the molar value.
Parameter Measured: pIC50

entry_smiles=N#Cc1c(O)c2c(-c3ccc(-c4ccccc4O)cc3)csc2[nH]c1=O observed_value="< 5.99"
entry_smiles=CC(=O)O[C@H]1C(=O)[C@@]2(C)[C@H]([C@H](OC(=O)c3ccccc3)[C@]3(O)C[C@H](OC(=O)[C@H](O)[C@@H](NC(=O)c4ccccc4)c4ccccc4)C(C)=C1C3(C)C)[C@]1(OC(C)=O)CO[C@@H]1C[C@@H]2O observed_value=7.86
entry_smiles=CCN(CC)CCCCNc1ncc2cc(-c3cc(OC)cc(OC)c3)c(NC(=O)NC(C)(C)C)nc2n1 observed_value="< 5.70"
entry_smiles=Cc1cn(-c2cc(NC(=O)c3ccc(C)c(Nc4nccc(-c5cccnc5)n4)c3)cc(C(F)(F)F)c2)cn1 observed_value="< 5.70"

Reported pIC50 for CN(C)C(=N)NC(=N)N was < 1.70

Reported pIC50 for CC1(C)CNc2cc(NC(=O)c3cccnc3NCc3ccncc3)ccc21 was < 5.70

Reported pIC50 for OCCCNc1cc(-c2ccnc(Nc3cccc(Cl)c3)n2)ccn1 was 7.11

---

// values below are reported IC50
Tested on: KARPAS-45;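 note: inhibition of cell line growth, read out through a viability assay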
Protocol Text: cells
Assay type: functional, cell-based, Homo sapiens
Recorded Conditions: Homo sapiens, KARPAS-45
Description: SANGER: Inhibition of human KARPAS-45 cell growth in a cell viability assay.

molecule=CCN(CC)CCCCNc1ncc2cc(-c3cc(OC)cc(OC)c3)c(NC(=O)NC(C)(C)C)nc2n1 system_name=KARPAS-45 parameter_measured=IC50 observed_value="> 2 µM"
molecule=CCC/C=C/C=C/C(=O)O[C@H]1/C(=C/C(=O)OC)C[C@H]2C[C@H]([C@@H](C)O)OC(=O)C[C@H](O)C[C@@H]3C[C@H](OC(C)=O)C(C)(C)[C@](O)(C[C@@H]4C/C(=C/C(=O)OC)C[C@H](/C=C/C(C)(C)[C@]1(O)O2)O4)O3 system_name=KARPAS-45 parameter_measured=IC50 observed_value="> 0.008 µM"
molecule="COc1cc2ncn(-c3cc(OCc4ccccc4S(C)(=O)=O)c(C#N)s3)c2cc1OC [GSK-319347A]" system_name=KARPAS-45 parameter_measured=IC50 observed_value="> 5 µM"

Reported IC50 for Cc1ccc(-c2c(C(=O)CCl)n(CCCO)c3ncnc(N)c23)cc1 was > 4 µM
